Ref: ChEMBL document CHEMBL1828593

Known pEC50 of a selection of molecules
target: Neuronal acetylcholine receptor; alpha4/beta2 (Homo sapiens, UniProt P17787+P43681); assay: Antagonist activity at human alpha4beta2 nAChR expressed in Xenopus oocytes assessed as increase of acetylcholine-induced effect by electrophysiology assay
Sequence (P17787 whole entry): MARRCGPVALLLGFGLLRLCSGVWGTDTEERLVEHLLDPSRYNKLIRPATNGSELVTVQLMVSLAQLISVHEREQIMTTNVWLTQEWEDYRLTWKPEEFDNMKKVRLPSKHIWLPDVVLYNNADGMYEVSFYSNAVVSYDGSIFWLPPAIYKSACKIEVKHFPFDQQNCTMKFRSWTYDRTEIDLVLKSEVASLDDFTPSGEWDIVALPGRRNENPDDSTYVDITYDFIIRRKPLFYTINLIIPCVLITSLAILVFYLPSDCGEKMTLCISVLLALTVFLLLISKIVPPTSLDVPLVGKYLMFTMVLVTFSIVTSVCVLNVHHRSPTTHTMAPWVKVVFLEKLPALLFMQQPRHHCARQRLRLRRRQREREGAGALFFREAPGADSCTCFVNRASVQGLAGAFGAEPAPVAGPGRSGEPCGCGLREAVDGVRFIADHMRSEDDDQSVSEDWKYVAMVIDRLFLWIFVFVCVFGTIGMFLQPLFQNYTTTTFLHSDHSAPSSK
Sequence (P43681 whole entry): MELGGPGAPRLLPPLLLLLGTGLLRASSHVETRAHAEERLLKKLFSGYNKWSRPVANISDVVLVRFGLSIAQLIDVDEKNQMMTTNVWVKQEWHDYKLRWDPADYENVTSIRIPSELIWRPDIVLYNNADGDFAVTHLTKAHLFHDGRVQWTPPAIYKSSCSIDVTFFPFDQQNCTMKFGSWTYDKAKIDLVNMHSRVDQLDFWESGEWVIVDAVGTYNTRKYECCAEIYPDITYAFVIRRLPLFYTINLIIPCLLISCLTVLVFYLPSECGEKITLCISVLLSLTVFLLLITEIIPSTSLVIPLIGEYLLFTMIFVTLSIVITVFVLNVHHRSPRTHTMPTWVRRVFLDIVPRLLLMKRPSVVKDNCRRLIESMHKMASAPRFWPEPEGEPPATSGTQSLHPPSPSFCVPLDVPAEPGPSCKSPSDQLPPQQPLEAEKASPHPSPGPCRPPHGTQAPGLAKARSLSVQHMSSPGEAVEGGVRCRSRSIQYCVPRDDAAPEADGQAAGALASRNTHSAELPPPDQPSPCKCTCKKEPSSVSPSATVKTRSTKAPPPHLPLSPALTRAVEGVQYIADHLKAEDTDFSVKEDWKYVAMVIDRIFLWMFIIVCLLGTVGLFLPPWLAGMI
pEC50: −log10 of the molar value.
Assay metric: pEC50

Molecule	Assay metric	Numeric result
CN1CC2Cc3ccccc3C1c1ccccc12 (stereo not given)	pEC50	5.00
NCC(c1ccccc1)c1ccc(-c2ccccc2)cc1 (stereo not given)	pEC50	5.00
NCC(OCc1ccc(Cl)cc1Cl)c1ccccc1 (stereo not given)	pEC50	5.00
c1ccc2c(c1)CC1CNC2c2ccccc21 (stereo not given)	pEC50	5.00
NCC(OCc1ccc(Cl)cc1)c1ccccc1 (stereo not given)	pEC50	5.00
